So I've got a bunch of compounds here, and I need their pIC50 values.
Test system: HL-60
Assay: Cytotoxicity against human HL60 cells assessed as cell viability after 48 hrs by MTT assay
Format: functional, cell-based
Details: HL-60, 48 h
Value format note: pIC50 is -log10 of concentration (mol/L); just state the number.

Hello, I am looking for reported pIC50 with HL-60 for CC1(C)C(=O)C=C[C@]2(C)[C@H]3CC[C@@]4(C)[C@H](c5ccoc5)OC(=O)[C@H]5O[C@]54[C@]3(C)[C@H](OC(=O)c3ccccc3)C[C@@H]12 . Could you help?
5.54

Hello, I am looking for reported pIC50 with HL-60 for O=c1[nH]cc(F)c(=O)[nH]1 . Could you help?
5.04

* * *

Test system: HL-60
Experiment: Cytotoxicity against human HL60 cells assessed as cell viability after 48 hrs by MTT assay
Format: functional, cell-based
Conditions: HL-60, 48 h
pIC50: −log10 of the molar value.
So I've got a bunch of compounds here, and I need their pIC50 values.

Please look up its pIC50: CC(=O)O[C@H]1C[C@@H](OC(C)=O)[C@@]2(C)CO[C@@H]3[C@@H](O)[C@@]4(C)C5=CC[C@@H](c6ccoc6)[C@]5(C)CC[C@@H]4[C@]1(C)[C@@H]32
4.82

Please look up its pIC50: COC(=O)C[C@H]1[C@]2(C)C3=C(C)[C@H](c4ccoc4)C[C@H]3O[C@@H]2[C@H](O)[C@@H]2[C@]1(C)C(=O)C=C[C@@]2(C)C(=O)OC
4.94

Please look up its pIC50: CC(=O)O[C@@H]1C[C@H]2C(C)(C)C(=O)C=C[C@]2(C)[C@H]2CC[C@]3(C)C(=CC(=O)[C@H]3C3=CCOC3=O)[C@@]21C [AZADIRADIONOLIDE]
< 4.70

Please look up its pIC50: C/C=C(/C)C(=O)O[C@H]1C[C@@H](O)[C@@]2(C)CO[C@H]3[C@H]4O[C@@H]5C[C@@H](c6ccoc6)C(C)=C5[C@@]4(C)[C@H](CC(=O)OC)[C@]1(C)[C@@H]32
< 4.70

Please look up its pIC50: CC(=O)O[C@@H]1C[C@H]2C(C)(C)C(=O)C=C[C@]2(C)[C@H]2CC[C@@]3(C)OC(=O)C=C3[C@@]21C
< 4.70

Please look up its pIC50: COC(=O)C[C@H]1[C@]2(C)C3=C(C)[C@H](c4ccoc4)C[C@H]3O[C@@H]2[C@H](OC(C)=O)[C@@H]2[C@]1(C)C(=O)C=C[C@@]2(C)O
< 4.70

Please look up its pIC50: C/C=C(\C)C(=O)O[C@@H]1C[C@H](O)[C@]23CO[C@H](C(=O)OC)[C@H]2[C@](C)([C@]24O[C@@]2(C)[C@H]2C[C@@H]4O[C@@H]4OC=C[C@@]42O)[C@H](O)[C@@H]2OC[C@@]1(C(=O)OC)[C@H]23
< 4.70

Please look up its pIC50: CC(=O)O[C@@H]1C[C@H]2C(C)(C)C(=O)C=C[C@]2(C)[C@H]2CC[C@]3(C)C(=C(O)C(=O)[C@H]3c3ccoc3)[C@@]21C
< 4.70

Please look up its pIC50: CC(=O)O[C@@H]1C[C@H]2C(C)(C)C(=O)C=C[C@]2(C)[C@H]2CC[C@]3(C)C(=CC(=O)[C@]3(O)c3ccoc3)[C@@]21C
< 4.70

Please look up its pIC50: CC=C(C)C(=O)O[C@H]1C[C@@H](OC(C)=O)[C@@]2(C(=O)OC)CO[C@H]3[C@H]4O[C@@H]5C6C[C@@H](O[C@@H]7OC=C[C@]67O)[C@]5(O)[C@@]4(C)[C@@H]4[C@@](OC)(C(=O)OC)OC[C@@]14[C@@H]32
< 4.70

* * *

Test system: HL-60
Assay: Cytotoxicity against human HL60 cells assessed as cell viability after 48 hrs by MTT assay
Format: functional, cell-based
Conditions: HL-60, 48 h
Please assign Criterion not met whenever IC50 is at or above 6 µM, and Criterion met whenever it is below.

is_below(IC50, 6 µM) for CC1(C)C(=O)C=C[C@]2(C)[C@H]3CC[C@@]4(C)[C@H](c5ccoc5)OC(=O)[C@H]5O[C@]54[C@]3(C)[C@H](O)C[C@@H]12 ?
Criterion not met

is_below(IC50, 6 µM) for CC(=O)O[C@@H]1C[C@H]2C(C)(C)C(=O)C=C[C@]2(C)[C@H]2CC[C@]3(C)C(=CC[C@H]3[C@H]3COC(=O)C3)[C@@]21C ?
Criterion not met

is_below(IC50, 6 µM) for CC(=O)O[C@@H]1C[C@H]2C(C)(C)C(=O)C=C[C@]2(C)[C@H]2CC[C@]3(C)OC(=O)C=C3[C@@]21C ?
Criterion not met

is_below(IC50, 6 µM) for CC1(C)C(=O)C=C[C@]2(C)[C@H]3CC[C@]4(C)C(=CC(=O)[C@H]4c4ccoc4)[C@]3(C)[C@H](OC(=O)c3ccccc3)C[C@@H]12 ?
Criterion met

is_below(IC50, 6 µM) for CC1(C)C(=O)C=C[C@]2(C)[C@H]3CC[C@]4(C)C(=CC(=O)[C@H]4c4ccoc4)[C@]3(C)[C@H](O)C[C@@H]12 ?
Criterion not met

is_below(IC50, 6 µM) for CC(=O)O[C@@H]1C[C@H]2C(C)(C)C(=O)C=C[C@]2(C)[C@H]2CC[C@@]3(C)[C@H](c4ccoc4)C(=O)[C@H]4O[C@]43[C@@]21C ?
Criterion not met

is_below(IC50, 6 µM) for CC(=O)O[C@@H]1C[C@H]2C(C)(C)C(=O)C=C[C@]2(C)[C@H]2CC[C@@]3(C)C(c4ccoc4)=C(O)C(=O)[C@H]3[C@@]21C ?
Criterion not met

is_below(IC50, 6 µM) for CC(=O)O[C@@H]1C[C@H]2C(C)(C)C(=O)C=C[C@]2(C)[C@H]2CC[C@]3(C)C(=CC(=O)[C@H]3c3ccoc3)[C@@]21C ?
Criterion not met

is_below(IC50, 6 µM) for COC(=O)C[C@H]1[C@]2(C)C3=C(C)[C@H](c4ccoc4)C[C@H]3O[C@@H]2[C@@H]2OC[C@]3(C)C=CC(=O)[C@@]1(C)[C@@H]23 ?
Criterion met

is_below(IC50, 6 µM) for CCC(C)C(=O)O[C@H]1C[C@@H](OC(C)=O)[C@@]2(C)CO[C@H]3[C@H]4O[C@@H]5C[C@@H](c6ccoc6)C(C)=C5[C@@]4(C)[C@H](CC(=O)OC)[C@]1(C)[C@@H]32 (stereo partly specified) ?
Criterion not met

* * *

Tested on: SK-BR-3
Test: Cytotoxicity against human SK-BR-3 cells assessed as cell viability after 48 hrs by MTT assay
Assay type: functional, cell-based
Conditions: SK-BR-3, 48 h
REPORTED_METRIC: pIC50
Value format note: pIC50 is -log10 of concentration (mol/L); just state the number.

Hello, I am looking for reported pIC50 with SK-BR-3 for CC(=O)O[C@@H]1C[C@H]2C(C)(C)C(=O)C=C[C@]2(C)[C@H]2CC[C@]3(C)C(=CC(=O)[C@H]3c3ccoc3)[C@@]21C . Could you help?
4.80

Hello, I am looking for reported pIC50 with SK-BR-3 for CC(=O)O[C@@H]1C[C@H]2C(C)(C)C(=O)C=C[C@]2(C)[C@H]2CC[C@@]3(C)[C@H](c4ccoc4)OC(=O)[C@H]4O[C@]43[C@@]21C . Could you help?
5.08

* * *

Assay: Cytotoxicity against human AZ-521 cells assessed as cell viability after 48 hrs by MTT assay
Type: functional, cell-based
Details: AZ-521, 48 h
pIC50: −log10 of the molar value.
REPORTED_METRIC: pIC50

Please look up its pIC50: CC=C(C)C(=O)O[C@H]1C[C@@H](OC(C)=O)[C@@]2(C(=O)OC)CO[C@H]3[C@H]4O[C@@H]5C6C[C@@H](O[C@@H]7OC=C[C@]67O)[C@]5(O)[C@@]4(C)[C@@H]4[C@@](OC)(C(=O)OC)OC[C@@]14[C@@H]32
< 4.70

Please look up its pIC50: CC1(C)C(=O)C=C[C@]2(C)[C@H]3CC[C@@]4(C)[C@H](c5ccoc5)OC(=O)[C@H]5O[C@]54[C@]3(C)[C@H](O)C[C@@H]12 [DEACETYLGEDUNIN]
4.77

Please look up its pIC50: COC(=O)C[C@H]1[C@]2(C)C3=C(C)[C@H](c4ccoc4)C[C@H]3O[C@@H]2[C@H](OC(C)=O)[C@@H]2[C@]1(C)C(=O)C=C[C@@]2(C)C(=O)OC [NIMBIN]
< 4.70

Please look up its pIC50: CCC(C)C(=O)O[C@H]1C[C@@H](OC(C)=O)[C@@]2(C(=O)OC)CO[C@H]3[C@@H](O)[C@@](C)([C@]45O[C@@]4(C)C4CC5O[C@@H]5C[C@@H](OC)C[C@]45O)[C@@H]4[C@@H](C(=O)OC)OC[C@@]14[C@@H]32 (some centres undefined)
< 4.70

Please look up its pIC50: COC(=O)C[C@H]1[C@]2(C)C3=C(C)[C@H](c4ccoc4)C[C@H]3O[C@@H]2[C@H](O)[C@@H]2[C@]1(C)C(=O)C=C[C@@]2(C)C(=O)OC [DEACETYLNIMBIN]
< 4.70

Please look up its pIC50: CCC(C)C(=O)O[C@H]1C[C@@H](OC(C)=O)[C@@]2(C(=O)OC)CO[C@H]3[C@@H](O)[C@@](C)([C@]45O[C@@]4(C)C4CC5O[C@@H]5C[C@H](OC)C[C@]45O)[C@@H]4[C@@H](C(=O)OC)OC[C@@]14[C@@H]32 (some centres undefined) [VEPAOL]
< 4.70

Please look up its pIC50: CC1(C)C(=O)C=C[C@]2(C)[C@H]3CC[C@@]4(C)[C@H](c5ccoc5)C(=O)[C@H]5O[C@]54[C@]3(C)[C@H](OC(=O)c3ccccc3)C[C@@H]12
5.08

Please look up its pIC50: CC(=O)O[C@H]1C[C@@H](OC(C)=O)[C@@]2(C)CO[C@@H]3[C@@H](O)[C@@]4(C)C5=CC[C@@H](c6ccoc6)[C@]5(C)CC[C@@H]4[C@]1(C)[C@@H]32
4.83

Please look up its pIC50: CCC(C)C(=O)O[C@H]1C[C@@H](OC(C)=O)[C@@]2(C)CO[C@H]3[C@H]4O[C@@H]5C[C@@H](c6ccoc6)C(C)=C5[C@@]4(C)[C@H](CC(=O)OC)[C@]1(C)[C@@H]32 (some centres undefined)
< 4.70

Please look up its pIC50: CC=C(C)C(=O)O[C@@H]1[C@@H]2OC[C@]3(C)[C@H](OC(C)=O)C[C@H](O)[C@](C)([C@H]4CC[C@@](C)([C@@H](C)[C@H]5COC(=O)C5)C[C@]14C)[C@@H]23
< 4.70

Please look up its pIC50: C/C=C(/C)C(=O)O[C@H]1C[C@@H](OC(C)=O)[C@@]2(C)CO[C@H]3[C@H]4O[C@@H]5CC(=O)C(C)=C5[C@@]4(C)[C@H](CC(=O)OC)[C@]1(C)[C@@H]32
< 4.70

Please look up its pIC50: CC(=O)O[C@@H]1C[C@H]2C(C)(C)C(=O)C=C[C@]2(C)[C@H]2CC[C@]3(C)C(=CC(=O)[C@H]3c3ccoc3)[C@@]21C [AZADIRADIONE]
< 4.70

Please look up its pIC50: COC(=O)C[C@H]1[C@]2(C)C3=C(C)[C@H](c4ccoc4)C[C@H]3O[C@@H]2[C@@H]2OC[C@]3(C)[C@H](OC(C)=O)C[C@H](OC(=O)/C=C/c4ccccc4)[C@@]1(C)[C@@H]23 [OHCHININ ACETATE]
< 4.70

Please look up its pIC50: CC(=O)O[C@@H]1C[C@H]2C(C)(C)C(=O)C=C[C@]2(C)[C@H]2CC[C@@]3(C)[C@H](c4ccoc4)OC(=O)[C@H]4O[C@]43[C@@]21C [GEDUNIN]
4.77

Please look up its pIC50: CC1(C)C(=O)C=C[C@]2(C)[C@H]3CC[C@]4(C)C(=CC(=O)[C@H]4c4ccoc4)[C@]3(C)[C@H](O)C[C@@H]12 [NIMBOCINOL]
< 4.70

Please look up its pIC50: CC(=O)O[C@@H]1C[C@H]2C(C)(C)C(=O)C=C[C@]2(C)[C@H]2CC[C@]3(C)C(=CC(=O)[C@@H]3c3ccoc3)[C@@]21C [17-EPIAZADIRADIONE]
< 4.70

Please look up its pIC50: CC(=O)O[C@@H]1C[C@H]2C(C)(C)C(=O)C=C[C@]2(C)[C@H]2CC[C@]3(C)OC(=O)C=C3[C@@]21C
< 4.70

Please look up its pIC50: CC(=O)O[C@@H]1C[C@H]2C(C)(C)C(=O)C=C[C@]2(C)[C@H]2CC[C@]3(C)C(=CC(=O)[C@H]3C3=CCOC3=O)[C@@]21C [AZADIRADIONOLIDE]
< 4.70

Please look up its pIC50: CC(=O)O[C@@H]1C[C@H]2C(C)(C)C(=O)C=C[C@]2(C)[C@H]2CC[C@@]3(C)[C@H](c4ccoc4)C(=O)[C@H]4O[C@]43[C@@]21C [EPOXYAZADIRADIONE]
< 4.70

Cited source for all entries: ChEMBL document CHEMBL1773010
